Every entry's value here was drawn from PubChem BioAssay (NCI).

tested on: IGROV1 ovarian; assay: NCI-60 one-dose screen, 48 h (100 = growth as untreated, 0 = no growth, -100 = all killed); conditions: 10 µM unless noted
This is part of a sample that, as a whole, favours compounds with a hit. Of some 83,000 tested, about 20% had one in any assay. Active and inactive are the calls of the source. How the source made its calls: active means growth percent below 10; inactive means the rest.
quantity: growth

Solved entries (count: 2):
CC(=O)n1cc(C=O)c2ccccc21: 112% (inactive)
c1ccc(-c2nnc(-c3c[nH]c4ncccc34)s2)cc1: 54.6% (inactive)

Moving on to another compound below.
[in] Query: growth; subject: Cc1ccc2c(c1)/C(=N\N=C/c1cn(C(C)C)c3ccccc13)C(=O)N2
[out] 48.1% (inactive)

* * *

tested on: LOX IMVI melanoma; test: NCI-60 one-dose screen, 48 h; conditions: 10 µM unless noted
The panel holds about 83,000 compounds, 20% with a hit somewhere; the sample as a whole holds those more often. The source made the active and inactive calls. How the source made its calls: active means growth percent below 10; inactive means the rest.
Permitted responses: class 1 (active), class 0 (inactive)

Use the examples below as a reference point.
C=CC1=C(C)C2=NC1=CC1=NC(=CC3=C(C)C4=C(O)C(C(=O)O)C(=C5NC(=C2)C(C)C5CCC(=O)O)C4=N3)C(CC)=C1C (stereo not drawn): class 0
O=C(Nc1cccc(F)c1)c1cc(=O)[nH]c2cc(Br)ccc12: class 0
CCCCC(CC)COC(=O)C[N+](C)(C)CCOC(c1ccccc1)c1ccccc1 (stereo not drawn): class 1

[in] Fill in: this test's call for CC/C=C(\C)C(CCC)(CN=O)C(=O)OCC (stereo not drawn) is ___
[out] class 0

[in] Further, for COc1ccc2nc3ccccc3c(NCCNCCO)c2c1 ?
[out] class 1

[in] Further, for CC(=O)O.CC(=O)O.O.[Fe] ?
[out] class 0

[in] Further, for CC1(C)C(=NO)C(C)(C)C1=NO ?
[out] class 0

[in] Further, for C[N+](C)(C)c1ncnc2[n-]cnc12 ?
[out] class 0

[in] Further, for CCCCCCSc1ncnc2nc[nH]c12 ?
[out] class 0

[in] Further, for C[C@H]1[C@H](C)CC[C@]2(COC(=O)CCC(=O)O)CC[C@]3(C)C(=CC[C@@H]4[C@@]5(C)CCCNC(C)(C)[C@@H]5CC[C@]43C)[C@H]12 ?
[out] class 0

[in] Further, for O=C1Nc2ccccc2/C1=C/C(=O)c1ccc(N2CCCCC2)cc1 ?
[out] class 0

[in] Further, for CCOC(=O)C(c1ccccc1)N1C(=O)c2ccccc2C1=O (stereo not drawn) ?
[out] class 0

[in] Further, for O=C1Nc2ccccc2/C1=C/C(=O)c1ccc(N2CCOCC2)cc1 ?
[out] class 0

* * *

system: SK-MEL-2 melanoma; experiment: NCI-60 one-dose screen, 48 h; settings: 10 µM unless noted
About 83,000 compounds went through this panel and 20% of them were active in at least one assay; those are over-represented in the sample as a whole. The source made the active and inactive calls. The calls were made as follows: active = growth percent below 10; inactive = the rest.
Permitted responses: active, inactive

Use the examples below as a reference point.
Cc1ccc(S(=O)(=O)Oc2ccc(Br)cc2Br)cc1: inactive
COc1ccc2nc3c(cc2c1)C(=O)CC(c1ccccc1)C3 (centres undefined): inactive
COc1cc2c(cc1OCCCN1CCN(CCCOc3cc4c(cc3OC)C(=O)N3C[C@H](F)C[C@H]3C=N4)CC1)N=C[C@@H]1C[C@@H](F)CN1C2=O: active

For the next question, use this molecule.
[in] Fill in: this test's call for Nc1nnc(CSc2nnc3n(Cc4ccccc4)c(=O)c4c5c(sc4n23)CCCC5)s1 is ___
[out] inactive
